Reported IC50 by item:
# Target or system: hMCP-1 (Homo sapiens, UniProt P13500)
# Sequence (P13500 24-99): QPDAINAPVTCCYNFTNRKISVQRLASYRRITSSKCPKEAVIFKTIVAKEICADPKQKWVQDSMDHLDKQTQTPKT
# Assay info: Inhibition of MCP-1-induced chemotaxis (48-well chamber, Example 21)
# Format: cell-based
# Parameters: purchased PeproTech
# Conditions: THP-1 cells, 2.5 nM hMCP-1, 48-well chamber, 2 hr
Structures can show the parent of a compound that is named as a salt.
Give the figure together with its unit, number first.

Cc1ccc(NC(=O)NC(=O)c2cnc3c(c(C)nn3C)c2N2CCN(C)CC2)cc1C(F)(F)F :: 4 µM
Cc1nn(C)c2ncc(C(=O)NC(=O)Nc3cccc(C(F)(F)F)c3)c(N3CCN(C)CC3)c12 [Compound 72] :: 3.6 µM
Cc1nn(C)c2ncc(C(=O)NC(=O)Nc3ccc(Cl)c(C(=O)N4CCOCC4)c3)c(N3CCN(C)CC3)c12 :: 1.9 µM

## Task // fetch IC50 given entry Cc1nn(C)c2ncc(C(=O)NC(=O)Nc3ccc(F)c(C(F)(F)F)c3)c(N3CCCN(C)CC3)c12 [Compound 108, hydrochloride]
## Result 2 µM

## Task Quick one: give measured IC50 for Cc1nn(C)c2ncc(C(=O)NC(=O)Nc3ccc(F)c(C(F)(F)F)c3)c(-[n+]3ccc(N)cc3)c12
## Result 0.4 µM

## Task Read the entry Cc1nn(C)c2ncc(C(=O)NC(=O)Nc3ccc(F)c(C(F)(F)F)c3)c(N3CCNCC3)c12 and write its reported IC50.
## Result 1.8 µM

## Task Please give measured IC50 of the following entry: Cc1nn(C)c2ncc(C(=O)NC(=O)Nc3ccc(F)c(C(F)(F)F)c3)c(NCCC34CCCN3CCC4)c12 [Compound 60, hydrochloride]
## Result 1.2 µM
